# System: K-562 leukemia
# Measurement description: NCI-60 one-dose screen, 48 h
# Condition description: 10 µM
About 83,000 compounds went through this panel and 20% of them were active in at least one assay; those are over-represented in the sample as a whole. Activity calls are given as the source filed them. Rule for the calls: active = growth percent below 10; inactive = the rest.
Returns: one label drawn from True for active, False for inactive

Molecule: O=C1/C(=C/c2ccc([N+](=O)[O-])o2)Oc2ccccc21
Class name: True

Molecule: ClCC#CCSc1ncnc2c1ncn2CC#CCCl
Class name: False

Molecule: COC(=O)C(C(C[N+](=O)[O-])c1ccccc1)=P(c1ccccc1)(c1ccccc1)c1ccccc1 (centres undefined)
Class name: False

Molecule: CC(=O)N(C)c1ccc(Nc2ccc(Nc3ccc(N(C)C(C)=O)cc3)c3c2C(=O)c2ccccc2C3=O)cc1
Class name: False

Molecule: COc1cc(Nc2ccnc(NCCCNc3ccnc4cc(Cl)ccc34)n2)cc(OC)c1
Class name: True

### Prompt Recorded test outcome, item `CCN1Cc2c(/C=C/c3ccccc3)nc3ccc(OC)cc3c2N(c2cccc(Cl)c2)C1`
### Response False

### Prompt Entry `COc1ccc(-c2nc3sc(C4CC4)nn3c2/C=C2/C(=O)Nc3ccc(OC)cc32)cc1` : call = ?
### Response False

### Prompt Kindly provide the recorded test outcome for the following molecule: `CCN(CCCCCCCCCCN1CC(=O)N(CCCCCCCCCCN(CC)Cc2ccccc2OC)CC1=O)Cc1ccccc1OC`
### Response True

### Prompt For `NC(=O)CC1(c2ccccc2)CCCCC1` , what call appears in the results of this test?
### Response False

### Prompt What classification did COc1ccc(C2=NN(C(=O)c3ccc(S(C)(=O)=O)cc3)C(c3ccc(OC)c(OC)c3)C2)c(OC)c1 (centres undefined) end up with in this test?
### Response False

### Prompt How was `Cn1c(N)c(N=Nc2ccc(S(=O)(=O)Nc3nccs3)cc2)c(=O)n(C)c1=O` classified in this test?
### Response False

### Prompt Tell me the recorded outcome of this test for `COc1ccc2c(c1)C(=O)c1c-2c(OCCN2CCCCC2)nc2ccc(OC)cc12` .
### Response False

### Prompt Status in this test for `COc1ccc(Nc2ncnc3c2c(SC)nn3-c2ccccc2)cc1` ?
### Response False

### Prompt Recorded test outcome, item `Cc1ccc2oc3nc(C)c(C(=O)NCc4ccccc4)cc3c(=O)c2c1`
### Response False

### Prompt # fetch the recorded call for `COc1ccc(C(=O)/C=C/c2cc(-c3cc(OC)c(OC)c(OC)c3)n[nH]2)cc1` here
### Response True

### Prompt Recorded test outcome, item `COC(=O)c1c(-c2ccccc2)csc1NC(=O)c1c(-c2ccccc2)noc1C`
### Response False

###

# System: DU-145 prostate
# Measurement description: NCI-60 one-dose screen, 48 h (100 = growth as untreated, 0 = no growth, -100 = all killed)
# Condition description: 10 µM
Compounds without any hit were thinned out: in the full panel of roughly 83,000, 20% have a hit.
Property label: growth (%)
Give bare numbers, in %.

Compound: c1ccc(CO[C@H]2CO[C@H]3[C@@H]2OC[C@H]3OCc2ccccc2)cc1
Target: DU-145 prostate
U: %
growth: 119
//
Compound: COc1ccc(NC2=NC(C)(CO)CS2)cc1 (configuration not stated)
Target: DU-145 prostate
U: %
growth: 120
//
Compound: N#Cc1ncc(-c2cc(F)c(F)c(F)c2)c(NC2CCCCCC2)n1
Target: DU-145 prostate
U: %
growth: 108

For each of the compounds below, state growth.
1. N=c1c2c(-c3ccccc3)c(-c3ccccc3)n(Cc3ccccc3)c2ncn1CCCO
2. Nc1c(C(=O)Nc2cccc3ccccc23)sc2nc3c(cc12)C(=O)CCC3
3. COc1ccc2c(c1)O/C(=C\c1ncc([N+](=O)[O-])n1C)C2=O

### Response
34.5
-9.63
-19.2
